organism: Rattus norvegicus; assay: DrugMatrix - Regimen: Daily Repeat; assay type: toxicity, organism-based, Sprague-Dawley; design: regimen Daily Repeat, gender Male, age 6-8 weeks; settings: in vivo, po, 0 mg/kg, 120 h, tissue Blood, route oral GAVAGE, dose level Control, time 5 day, […]
Output yes (1) for records whose LYMPHOCYTE is lower than 90%, no (0) for records at or above 90%.

Answered cases to consult:
Compound	Label
CC1=C(/C=C/C(C)=C/C=C/C(C)=C\C(=O)O)C(C)(C)CCC1 [ISOTRETINOIN]	no (0)
COc1ccc2c(c1)c(CC(=O)OCC(=O)O)c(C)n2C(=O)c1ccc(Cl)cc1 [ACEMETACIN]	yes (1)
COC1=CC(=O)C[C@@H](C)[C@]12Oc1c(Cl)c(OC)cc(OC)c1C2=O [GRISEOFULVIN]	yes (1)

# input for lookup
Challenge: Confirm or reject: LYMPHOCYTE of CC(C)(Oc1ccc(CCNC(=O)c2ccc(Cl)cc2)cc1)C(=O)O [BEZAFIBRATE] lies strictly below 90%
Response given: yes (1)

----------
Listed compounds paired with reported CREATINE PHOSPHOKINASE
organism: Rattus norvegicus; assay: DrugMatrix - Regimen: Daily Repeat; type: toxicity, organism-based, Sprague-Dawley; set-up: regimen Daily Repeat, gender Male, age 6-8 weeks; conditions: in vivo, po, 0 mg/kg, 120 h, tissue Plasma, route oral GAVAGE, dose level Control, time 5 day, […]
Give the value in u/L but do not write u/L after it.

Some compounds with known CREATINE PHOSPHOKINASE results, for comparison:
Compound	Parameter Measured	Output Unit	Observed
CC1=C(/C=C/C(C)=C/C=C/C(C)=C\C(=O)O)C(C)(C)CCC1	CREATINE PHOSPHOKINASE	u/L	393.17
CSc1ccc2c(c1)N(CCC1CCCCN1C)c1ccccc1S2 (stereo not given)	CREATINE PHOSPHOKINASE	u/L	402.5
CN(C)CCCC1(c2ccc(F)cc2)OCc2cc(C#N)ccc21 (stereo not given)	CREATINE PHOSPHOKINASE	u/L	263.67
COCc1c(C(C)C)nc(C(C)C)c(/C=C/[C@@H](O)C[C@@H](O)CC(=O)O)c1-c1ccc(F)cc1	CREATINE PHOSPHOKINASE	u/L	386.17

Challenge: Which measured CREATINE PHOSPHOKINASE value corresponds to `O=[N+]([O-])c1cc([As](=O)(O)O)ccc1O` ?
Response given: 251

Challenge: Repeat with `Oc1c(Cl)cc(Cl)cc1Sc1cc(Cl)cc(Cl)c1O`
Response given: 305.17

----------
species on record: Rattus norvegicus; test: DrugMatrix - Regimen: Daily Repeat; format: toxicity, organism-based, Sprague-Dawley; parameters: regimen Daily Repeat, gender Male, age 6-8 weeks; settings: in vivo, po, 0 mg/kg, 120 h, tissue Blood, route oral GAVAGE, dose level Control, time 5 day, vehicle .5 % CMC
Each entry below carries its recorded ABSOLUTE SEGMENTED NEUTROPHIL.
# unit: CELLS/uL | format: bare number

Challenge: Name the reported ABSOLUTE SEGMENTED NEUTROPHIL value associated with the compound `CC(/C=C1\SC(=S)N(CC(=O)O)C1=O)=C\c1ccccc1`
Response given: 1308.17

Challenge: Do the same for COc1c(C)c2c(c(O)c1C/C=C(\C)CCC(=O)OCCN1CCOCC1)C(=O)OC2 [MYCOPHENOLATE MOFETIL] please
Response given: 1308.17

Challenge: Same read-out for `CCC[C@@H]1C[C@@H](C(=O)N[C@@H]([C@H]2O[C@H](SC)[C@H](O)[C@@H](O)[C@H]2O)[C@@H](C)O)N(C)C1` ?
Response given: 1084.33

Challenge: // next record Cc1c(-c2ccccc2)oc2c(C(=O)OCCN3CCCCC3)cccc2c1=O [FLAVOXATE]
Response given: 1048.5

Challenge: Also, `Brc1ccccc1` please.
Response given: 966

Challenge: Next entry: CC1(C)[C@H]2CC[C@]1(C)C(=O)C2 [(-)-CAMPHOR]
Response given: 1468.33

Challenge: Now consider CCc1ccc(C(=O)C(C)CN2CCCCC2)cc1 (stereo not drawn) .
Response given: 1067.17

Challenge: Likewise for `O=c1[nH]cc(F)c(=O)[nH]1` ?
Response given: 1050.33

Challenge: Then what about the compound `CC(C)[C@H](N)C(=O)OCCOCn1cnc2c(=O)[nH]c(N)nc21` ?
Response given: 1225

Challenge: Then `COC(=O)c1ccc(O)cc1` ?
Response given: 980.67

Challenge: Another compound to check: CCOC(=O)OC(C)OC1=C(C(=O)Nc2ccccn2)N(C)S(=O)(=O)c2ccccc21 (stereo not drawn)
Response given: 966

Challenge: Follow-up item: `CN1CCC[C@@H]1CCO[C@](C)(c1ccccc1)c1ccc(Cl)cc1`
Response given: 1308.17
